Source listed as patent US9499550B2.

# Tested on: HCV genotype 1b (Con1) replicon in HUH-7 cells
# ASSAY EXPLANATION: HCV replicon luciferase reporter assay, genotype 1b
# Assay type: cell-based
# CONDITION DETAILS: Hepatitis C virus, Huh-7, 72 h, HCV genotype 1b replicon luciferase, 3 days incubation, read-out: LE_1b (EC50, range)
Each record here notes measured EC50.

As a guide, the following entries are already answered.
CC[C@@H]1C[C@H](C)CC/C=C\[C@@H]2C[C@@]2(C(=O)NS(=O)(=O)C2(C)CC2)NC(=O)[C@@H]2C[C@@H](Oc3nc4c(c5ccccc35)OCCC4)CN2C(=O)[C@H]1NC(=O)OC(C)(C)C = < 5.46 nM
CCOc1nnc(O[C@@H]2C[C@H]3C(=O)N[C@]4(C(=O)NS(=O)(=O)C5CC5)C[C@H]4/C=C\CC[C@@H](C)C[C@@H](C)[C@H](NC(=O)OC(C)(C)C)C(=O)N3C2)c2ccccc12 = < 5.46 nM
CCOc1ccc2c(O[C@@H]3C[C@H]4C(=O)N[C@]5(C(=O)NS(=O)(=O)C6(CF)CC6)C[C@H]5/C=C\CC[C@@H](C)C[C@@H](C)[C@H](NC(=O)OC(C)(C)C(F)(F)F)C(=O)N4C3)nccc2c1 = 0.51 to 1 nM

Alright, here's another compound for you.
What measured EC50 goes with C[C@H]1CC/C=C\[C@@H]2C[C@@]2(C(=O)NS(=O)(=O)C2(C)CC2)NC(=O)[C@@H]2C[C@@H](Oc3nccc4c5c(ccc34)OCCO5)CN2C(=O)[C@@H](NC(=O)O[C@@H]2C[C@@H]3C[C@@H]3C2)[C@H](C)C1 ?
< 5.46 nM

----------
# Tested on: HCV genotype 1b (Con1) replicon in HUH-7 cells
# ASSAY EXPLANATION: HCV replicon luciferase reporter assay, genotype 1b
# Format: cell-based
# CONDITION DETAILS: Hepatitis C virus, Huh-7, 72 h, HCV genotype 1b replicon luciferase, 3 days incubation, read-out: LE_1b (EC50, range)
READOUT LABEL: EC50

CCCOc1cnc(O[C@@H]2C[C@H]3C(=O)N[C@]4(C(=O)NS(=O)(=O)C5(C)CC5)C[C@H]4/C=C\CC[C@H](C)C[C@@H](C)[C@H](NC(=O)O[C@@H]4C[C@@H]5C[C@@H]5C4)C(=O)N3C2)c2ccccc12 = 4.82 to 103 nM

Alright, here's another compound for you.
What measured EC50 goes with CCn1nc(O[C@@H]2C[C@H]3C(=O)N[C@]4(C(=O)NS(=O)(=O)C5(C)CC5)C[C@H]4/C=C\CC[C@H](C)C[C@@H](C)[C@H](NC(=O)O[C@@H]4C[C@@H]5C[C@@H]5C4)C(=O)N3C2)c2ccccc2c1=O ?
4.82 to 103 nM

----------
# System: HCV genotype 1a (H77 strain) replicon in HUH-7 cells
# ASSAY EXPLANATION: HCV replicon luciferase reporter assay, genotype 1a
# Assay type: cell-based
# CONDITION DETAILS: Hepatitis C virus, Huh-7, 72 h, HCV genotype 1a replicon luciferase, 3 days incubation, read-out: LE_1a (EC50)
READOUT LABEL: pEC50
# pEC50 = -log10(concentration in molar units)

As a guide, the following entries are already answered.
CCCOc1cnc(O[C@@H]2C[C@H]3C(=O)N[C@]4(C(=O)NS(=O)(=O)C5(C)CC5)C[C@H]4/C=C\CC[C@H](C)C[C@@H](C)[C@H](NC(=O)O[C@H](C)C(F)(F)F)C(=O)N3C2)c2ccccc12 = 6.28
COc1nnc(O[C@@H]2C[C@H]3C(=O)N[C@]4(C(=O)NS(=O)(=O)C5(C)CC5)C[C@H]4/C=C\CC[C@H](C)C[C@@H](C)[C@H](NC(=O)NC(C)(C)C)C(=O)N3C2)c2ccccc12 = 7.39
CC[C@@H]1C[C@H](C)CC/C=C\[C@@H]2C[C@@]2(C(=O)NS(=O)(=O)C2CC2)NC(=O)[C@@H]2C[C@@H](Oc3nc(OC)cc4ccccc34)CN2C(=O)[C@H]1NC(=O)OC(C)(C)C(F)(F)F = 8.88

What measured pEC50 goes with COc1ccc2c(O[C@@H]3C[C@H]4C(=O)N[C@]5(C(=O)NS(=O)(=O)C6(C)CC6)C[C@H]5/C=C\CC[C@@H](C)C[C@@H](C)[C@H](NC(=O)O[C@H](C)C(F)(F)F)C(=O)N4C3)nc(-c3ccc(OC(C)C)cc3)c(OC)c2c1 ?
8.67
